Reference for the values: ChEMBL document CHEMBL4513216

test: Toxicity liver stage against HepG2, at 10uM; type: cell-based; parameters: test concentration 10 uM, cell line HepG2-A16-CD81EGFP; settings: human, HepG2-A16-CD81EGFP cells; read-out: INHIBITION
Item-by-item account of cytotoxicity at 10 µM
quantity: cytotoxicity at 10 µM (%)

compound: Cc1ncc2c(n1)CCCC2NC(=O)c1cnn(Cc2ccccc2)c1 (centres undefined)
unit.string: %
assay.result: -4.49
//
compound: N#CC(NC(=O)CCCOc1cccnc1)c1ccc(F)cc1F (centres undefined)
unit.string: %
assay.result: 8.23
//
compound: O=C(CC1C=CCC1)N1CCc2ncnc(NCc3ccon3)c2CC1 (centres undefined)
unit.string: %
assay.result: 22.8
//
compound: CS(=O)(=O)NCCC1CCCCN1C(=O)NCCc1ccccn1 (centres undefined)
unit.string: %
assay.result: -4.24
//
compound: Cc1nonc1CNC(=O)C(C)Oc1cccc(F)c1 (centres undefined)
unit.string: %
assay.result: 1.22
//
compound: Cc1cc(C(=O)NC2CCC3(CCC(=O)N3C)CC2)no1 (centres undefined)
unit.string: %
assay.result: -0.361
//
compound: O=C(NCC1CCOC1)Nc1ccc(Oc2cccc(F)c2)nc1 (centres undefined)
unit.string: %
assay.result: -5.01
//
compound: Cc1cnn(CC2CN(Cc3nc4ccccc4s3)CCO2)c1 (centres undefined)
unit.string: %
assay.result: 0.639
//
compound: CN1CCc2c(C#N)c(NCC3CCCO3)n3cnnc3c2C1 (centres undefined)
unit.string: %
assay.result: 4.48
//
compound: c1cncc(-c2ccc3c(c2)CCC32CCN(Cc3ccco3)CC2)c1
unit.string: %
assay.result: 17.1
//
compound: Cc1nc(NCc2ccc(F)cc2)cc(C(=O)N2CCOCC2)n1
unit.string: %
assay.result: -9.14
//
compound: Cc1cccc(S(=O)(=O)NCc2cccc(CS(C)(=O)=O)c2)c1
unit.string: %
assay.result: -18.4
//
compound: CCCn1nc(C2CCNCC2)n(Cc2ccccc2)c1=O
unit.string: %
assay.result: -12.9
//
compound: c1ccc(CN2CCC(NCCc3ccc4c(c3)CCO4)CC2)nc1
unit.string: %
assay.result: 3.73
//
compound: COc1ccccc1CC(=O)N1CCCC(CNS(C)(=O)=O)C1 (centres undefined)
unit.string: %
assay.result: 0.691
//
compound: CC(=O)N1CCC(NC(=O)Cc2csc(C(C)(C)C)n2)CC1
unit.string: %
assay.result: -8.41
//
compound: O=S(=O)(c1cccs1)N1CC[C@@H](O)[C@@H]1Cc1ccncc1
unit.string: %
assay.result: -72.8
//
compound: CCc1nnc(NC(=O)N(CCOC)Cc2ccc(C)o2)s1
unit.string: %
assay.result: -18.8
//
compound: O=C1CCCC2=C1C(c1ccccc1Cl)C1C(=O)NN=C1N2 (centres undefined)
unit.string: %
assay.result: -11.6
//
compound: CO[C@H]1CN(Cc2cc(Cn3cncn3)c(C)cc2C)CC[C@H]1N
unit.string: %
assay.result: -7.29
//
compound: CNC(=O)c1cn[nH]c1C1CCN(Cc2cccc(C)c2OC)C1 (centres undefined)
unit.string: %
assay.result: -23.6
//
compound: Cc1cc(C)n(CC(C)CNC(=O)NCc2ccco2)n1 (centres undefined)
unit.string: %
assay.result: -2.58
//
compound: CN(C)CC(=O)N1Cc2cc(N(C)C)ccc2C1c1cnco1 (centres undefined)
unit.string: %
assay.result: -0.757
//
compound: O=C(c1ccnnc1)N1C[C@H](OCc2ccccn2)[C@H]2COC[C@H]21
unit.string: %
assay.result: -7.52
